// provenance: patent US8188091B2

methodNotes: Determination of the cytotoxicity in HepG 2.2.15 cells (microscopy, Reed & Muench)
Type: cell-based
testParameters: human, pathological changes at 8 days, read-out: TC50 (half-maximum toxic concentration)
Labelling field: enter YES if recorded CC50 at 8 days is less than 100 µM. Enter NO if it equals or exceeds that cut-off.

INSERT INTO results (compound, assignedclass) VALUES
  ('CC1(C)CC(=O)C2=C(C1)NC(c1c(F)cc(F)cc1F)=NC2c1ccc(F)cc1Cl (centres unmarked) [Example 11]', 'YES'),
  ('CC1(C)CC(=O)C2=C(C1)NC(c1cccnc1)=NC2c1ccccc1Cl (centres unmarked) [Example 7]', 'YES'),
  ('O=C1CCCC2=C1C(c1ccc(F)cc1)N=C(c1cccnc1)N2 (centres unmarked) [Example 8]', 'NO'),
  ('O=C1CCCC2=C1C(c1ccccc1)N=C(c1cccnc1)N2 (centres unmarked) [Example 6]', 'NO'),
  ('O=C1CCCC2=C1C(c1ccccc1Cl)N=C(c1cccnc1)N2 (centres unmarked) [Example 9]', 'NO'),
  ('O=C1CCCC2=C1C(c1ccc(F)cc1Cl)N=C(c1cccnc1)N2 (centres unmarked) [Example 3]', 'NO'),
  ('CC1(C)CC(=O)C2=C(C1)NC(c1cccnc1)=NC2c1ccccc1 (centres unmarked) [Example 5]', 'NO'),
  ('CC1(C)CC(=O)C2=C(C1)NC(c1cccnc1)=NC2c1ccc(F)cc1 (centres unmarked) [Example 4]', 'NO'),
  ('CC1(C)CC(=O)C2=C(C1)NC(c1cccnc1)=NC2c1ccc(F)cc1Cl (centres unmarked) [Example 1]', 'NO'),
  ('O=C1CCCC2=C1C(c1ccc(F)cc1Cl)N=C(c1c(F)cc(F)cc1F)N2 (centres unmarked) [Example 10]', 'YES');
